pIC50: −log10 of the molar value.
// human JAK1 (a.a. 837-1142) (Homo sapiens) pIC50 records
assay readout: pIC50

>>> result("N#CCC1(n2cc(-c3ccnc4[nH]ccc34)cn2)CN(C2CCN(C(=O)c3cncc(C(F)(F)F)n3)CC2)C1")
"7.70 to 8.30"
>>> result("N#CCC1(n2cc(-c3ncnc4[nH]ccc34)cn2)CN(C2CCN(C(=O)c3ccc(-c4ccc5cnccc5c4)c(F)c3)CC2)C1")
"≥ 8.30"
>>> result("Cc1cc(C(=O)N2CCC(N3CC(CC#N)(n4cc(-c5ncnc6[nH]ccc56)cn4)C3)CC2)cs1")
"≥ 8.30"
>>> result("N#CCC1(n2cc(-c3ncnc4[nH]ccc34)cn2)CN(C2CCN(C(=O)c3c(F)cncc3F)CC2)C1")
"7.70 to 8.30"
